Values compiled from the METLIN SMRT retention time set (Domingo-Almenara et al. 2019).

# METHOD_SUMMARY: gradient 5% acetonitrile 3 min, to 50% in 2 min, to 85% in 15 min, held 3 min, 100 µL/min
# PROTOCOL_CONDITIONS: column: Zorbax Extend-C18 2.1 x 50 mm; eluents: water / acetonitrile, 0.1% formic acid
Kindly supply the reported RP-LC retention time values for the records listed here.
Only the number, expressed in s, is required.

Give its RP-LC retention time value. Item: COc1ccc(Nc2c(-c3ccc(OC)cc3)nc3ncccn23)cc1
659

Query COc1cc([C@@H]2c3cc4c(cc3[C@H](O)[C@@H](CO)[C@@H]2C(=O)NC(C)C)OCO4)cc(OC)c1OC next
660

Query CCOC1CCN(C(=O)c2ccc(F)cc2)CC1 next
760
